Test system: OVCAR-4 ovarian
assay_overview: NCI-60 one-dose screen, 48 h (100 = growth as untreated, 0 = no growth, -100 = all killed)
experimental_context: 10 µM unless noted
This is part of a sample that, as a whole, favours compounds with a hit. Of some 83,000 tested, about 20% had one in any assay.
measured_property: growth (%)
Give bare numbers, in %.

{"columns": ["chemical_structure", "readout_unit", "growth"],
 "data": [
  ["O=C(CSc1nc2sc3c(c2c(=O)n1-c1ccc(Cl)cc1)CCCC3)N/N=C/c1ccc(F)cc1", "%", 89.8],
  ["CCCCCCNC(=O)Oc1ccc(/C(=C(/C)c2ccccc2)c2ccc(OCCN3CCCCCC3)cc2)cc1", "%", 49.7],
  ["CS(=O)(=O)c1ccc(-c2nc3ccccn3c2C=Nc2ccc(Cl)cc2)cc1", "%", 88.2]
]}

Look up growth for the entries below, preserving their order.
1. COc1cc(/C=C/C(=O)c2ccc(F)cc2)ccc1Oc1nc(NCCO)nc(N2CCOCC2)n1
2. CN(C)CCCOc1c2ccc(Cl)cc2nc2c1oc1ccc(Cl)cc12

Outgoing:
1: 88.4; 2: 50.6
